Entry source: ChEMBL document CHEMBL4483862

Tested on: Plasmodium berghei
Protocol: Luciferase/luciferin-expressing antifolate-resistant parasites were used to infect a culture of HepG2 cells that were pre-incubated with compounds. Infected hepatocytes emit light due to the luciferase reaction. Assay results are presented as the percent inhibition of light emission compared to control. […]
Assay type: functional
Condition Notes: sporozoite, PBLUC_HILL_SLOPE 11.5, PBLUC_R_SQUARED 0.42, read-out: LUCIFERASE INFECTION ASSAY - IC50
pIC50: −log10 of the molar value.
Metric: pIC50

CC(Sc1nnc(-c2ccc[nH]2)o1)C(=O)c1ccc(C(C)(C)C)cc1 (stereo unspecified)    5.05

---

Test system: Plasmodium berghei
Protocol: Luciferase/luciferin-expressing antifolate-resistant parasites were used to infect a culture of HepG2 cells that were pre-incubated with compounds. Infected hepatocytes emit light due to the luciferase reaction. Assay results are presented as the percent inhibition of light emission compared to control. […]
Type: functional
Condition Notes: sporozoite, PBLUC_HILL_SLOPE 14.4, PBLUC_R_SQUARED 0.373, read-out: LUCIFERASE INFECTION ASSAY - IC50
Metric: IC50 (µM)

Oc1ccccc1-c1cc(-c2ccccc2)nn1Cc1ccccc1    3.37
